target: G protein-activated inward rectifier potassium channel 2 (Homo sapiens) + G protein-activated inward rectifier potassium channel 1 (Homo sapiens) (UniProt P48051+P48549); experiment: GIRK1/2 thallium flux modulators, retest, confirmation, cell-based, HEK293 rmGlu8/hGIRK1/2, FluoZin-2 (AID 623911); conditions: HEK293 rmGlu8/hGIRK1/2, thallium flux FluoZin-2; actives lie on both sides; glutamate co-added at its EC20 level
Sequence (P48051 whole entry, looked up): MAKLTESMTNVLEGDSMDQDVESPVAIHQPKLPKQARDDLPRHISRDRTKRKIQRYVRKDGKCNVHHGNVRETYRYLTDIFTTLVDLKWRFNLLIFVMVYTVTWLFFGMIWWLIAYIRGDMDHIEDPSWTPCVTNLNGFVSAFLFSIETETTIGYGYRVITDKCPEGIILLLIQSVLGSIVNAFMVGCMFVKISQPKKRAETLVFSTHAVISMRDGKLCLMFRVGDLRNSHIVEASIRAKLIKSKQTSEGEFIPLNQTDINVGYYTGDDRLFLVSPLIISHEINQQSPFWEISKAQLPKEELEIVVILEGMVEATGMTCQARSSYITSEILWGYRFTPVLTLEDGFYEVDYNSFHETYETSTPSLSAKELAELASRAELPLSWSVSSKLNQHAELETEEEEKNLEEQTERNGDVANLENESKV
Sequence (P48549 whole entry, looked up): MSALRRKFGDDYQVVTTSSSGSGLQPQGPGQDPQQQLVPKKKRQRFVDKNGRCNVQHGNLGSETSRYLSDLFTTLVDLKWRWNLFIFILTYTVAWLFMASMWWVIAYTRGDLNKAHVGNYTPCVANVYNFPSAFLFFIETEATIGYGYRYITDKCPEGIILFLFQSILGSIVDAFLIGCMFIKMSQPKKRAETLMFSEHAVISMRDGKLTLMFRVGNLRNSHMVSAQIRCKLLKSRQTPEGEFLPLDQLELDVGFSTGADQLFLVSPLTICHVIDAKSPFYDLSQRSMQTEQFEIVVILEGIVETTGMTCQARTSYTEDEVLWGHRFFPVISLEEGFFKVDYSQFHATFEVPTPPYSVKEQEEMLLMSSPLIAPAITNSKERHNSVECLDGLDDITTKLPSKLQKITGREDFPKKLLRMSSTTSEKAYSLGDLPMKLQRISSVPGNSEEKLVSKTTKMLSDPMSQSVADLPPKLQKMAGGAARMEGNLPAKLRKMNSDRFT
Screen size: about 2,100 compounds; about 770 (37%) were called active.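 How the source made its calls: active means by-eye trace score of 1 for enhancers or -1 for inhibitors, so actives lie on both sides (some results past the limit were not filed as active); inactive means score 0, or 3 fluorescent, or 4 baseline rise.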 This is one part of the list.
The reply should be one of these categories: active, inactive

## Input Dear all, I need the recorded test outcome for O=C(NC(=Nc1ccccc1)N1CCOCC1)Nc1ccccc1 , thank you.
## Output active

## Input Dear all, I need the recorded test outcome for O=C(Nc1ccccc1)c1ccccc1NS(=O)(=O)c1ccc(Cl)s1 , thank you.
## Output active

## Input Dear all, I need the recorded test outcome for C=C(C)CNC(=S)Nc1nc2c(cc1C(=O)OCC)CCCC2 , thank you.
## Output active

## Input Dear all, I need the recorded test outcome for Cc1ccc(NC(=S)N/N=C/c2c(Cl)cccc2Cl)c(C)c1 , thank you.
## Output inactive

## Input Dear all, I need the recorded test outcome for N#Cc1ccc(-c2csc(NC3=NCCCCC3)n2)cc1 , thank you.
## Output active

## Input Dear all, I need the recorded test outcome for C/C(CC(C)(C)C1CCCCC1)=N\NC(N)=S , thank you.
## Output inactive

## Input Dear all, I need the recorded test outcome for CCOC(=O)CN1NC2(CCC(C(C)(C)C)CC2)NC1=S (stereo unspecified) , thank you.
## Output inactive

## Input Dear all, I need the recorded test outcome for CCOP(=O)(c1ccccc1)c1nc(-c2ccccc2C)oc1N1CCCCC1 (stereo unspecified) , thank you.
## Output active

## Input Dear all, I need the recorded test outcome for CCC(C)c1ccc(NC(=S)Nc2ccc(OC)c(OC)c2)cc1 (stereo unspecified) , thank you.
## Output active

## Input Dear all, I need the recorded test outcome for Cc1ccc(-c2cc(-c3n[nH]c(=S)o3)c3ccccc3n2)cc1 , thank you.
## Output inactive

## Input Dear all, I need the recorded test outcome for COc1ccccc1N(C)S(=O)(=O)c1ccc(C(=O)N(CC(N)=O)C(C)C)cc1 , thank you.
## Output inactive

## Input Dear all, I need the recorded test outcome for O=[n+]1c2c(n([O-])c3cc(F)c(N4CCCC4)cc31)CCCC2 , thank you.
## Output inactive

## Input Dear all, I need the recorded test outcome for C=CCNC(=S)Nc1nc2c(cc1C(=O)OCC)CCCC2 , thank you.
## Output active

## Input Dear all, I need the recorded test outcome for COc1cc(/C=C2\S/C(=N/S(=O)(=O)c3ccc(C)cc3)NC2=O)c([N+](=O)[O-])cc1OC , thank you.
## Output inactive

## Input Dear all, I need the recorded test outcome for COc1ccc(NC(=S)Nc2ccc(OCc3ccccc3)cc2)cc1OC , thank you.
## Output inactive

## Input Dear all, I need the recorded test outcome for N#Cc1ccsc1NC(=O)CN1CCN(c2ccc(O)cc2)CC1 , thank you.
## Output inactive

## Input Dear all, I need the recorded test outcome for N#C/C(=N\Nc1ccc(Cl)cc1)C(=O)c1ccccc1 , thank you.
## Output active

## Input Dear all, I need the recorded test outcome for CCC(C)(C)NC(=O)C(c1ccc(F)cc1)N(Cc1ccco1)C(=O)c1cnccn1 (stereo unspecified) , thank you.
## Output inactive

## Input Dear all, I need the recorded test outcome for Cc1cccc(NC(=S)N/C(=N/S(=O)(=O)c2ccccc2)c2ccccc2)c1 , thank you.
## Output active

## Input Dear all, I need the recorded test outcome for CCc1nc(N2CCOCC2)c(C#N)c2c1CCCC2 , thank you.
## Output inactive

## Input Dear all, I need the recorded test outcome for COc1cc(OC)c2nc(C)c3c(c2c1)N(c1ccc(O)cc1)CC3 , thank you.
## Output active

## Input Dear all, I need the recorded test outcome for CN(c1ccccc1C(=O)Nc1ccccc1C(=O)NCc1ccco1)S(C)(=O)=O , thank you.
## Output inactive

## Input Dear all, I need the recorded test outcome for Cc1cc(C)nc(N2CCCC(C(=O)NCCc3ccc(F)cc3)C2)n1 (stereo unspecified) , thank you.
## Output inactive

## Input Dear all, I need the recorded test outcome for O=C(c1cccc(F)c1)N1CCN(C(=O)c2cc(-c3ccc(Cl)cc3Cl)on2)CC1 , thank you.
## Output inactive

## Input Dear all, I need the recorded test outcome for S=C1NC2=C(CCCC2)C2(CCCCC2)N1 , thank you.
## Output inactive

## Input Dear all, I need the recorded test outcome for COC(=O)C1CCCN1C(=O)c1cccs1 (stereo unspecified) , thank you.
## Output inactive
